# Method Summary: LNP size and polydispersity index (PDI) by dynamic light scattering (Zetasizer)
# Type: physicochemical
# Run Conditions: Formulation No. 001, RNA No. 331
Property Name: PDI

For orientation, consider the following solved cases.
Compound: CCCCCCCC/C=C\CCCCCCCC(=O)NC(COC(=O)NCCN1CCCCCC1)C(=O)OCCCCCCCCOC(=O)C(CCCCCC)CCCCCCCC (stereo not drawn)
Property Name: PDI
Reported Measurement: 0.10
--
Compound: CCCCCCCCCCCOC(=O)NC(COC(=O)NCCN(C)C)C(=O)OCCCCCCCC(=O)OC(CCCCCCCC)CCCCCCCC (stereo not drawn)
Property Name: PDI
Reported Measurement: 0.03
--
Compound: CCCCCCCCC(CCCCCC)C(=O)OCCCCCCCCOC(=O)NC(COC(=O)NCCN1CCCCC1)C(=O)OCCCCCCCCOC(=O)C(CCCCCC)CCCCCCCC (stereo not drawn)
Property Name: PDI
Reported Measurement: 0.01

P. CCCCCCCCCCC(CCCCCCCC)COC(=O)CCCCCOC(=O)NC(COC(=O)NCCN1CCCCCC1)C(=O)OCCCCCCCC(=O)OC(CCCCCCCC)CCCCCCCC (stereo not drawn)
Q. CCCCC/C=C\C/C=C\CCCCCCCCOC(=O)NC(COC(=O)NCCN1CCCCCC1)C(=O)OCCCCCCCOC(=O)CCCCCCCCC (stereo not drawn)
R. CCCCCCCCCCC(CCCCCCCC)COC(=O)CCCCCOC(=O)NC(COC(=O)NCCN1CCCCC1)C(=O)OCCCCCC(=O)OCC(CCCCCCCC)CCCCCCCCCC (stereo not drawn)
S. CCCCCCCCCC(=O)OCCCCCCCOC(=O)C(COC(=O)NCCN1CCCCC1)NC(=O)OCCCCCCCCOC(=O)C(CCCCCC)CCCCCCCC (stereo not drawn)
T. CCCCCCCCCCC(CCCCCCCC)COC(=O)CCCCCOC(=O)NC(COC(=O)NCCN(C)C)C(=O)OCCCCCC(=O)OCC(CCCCCCCC)CCCCCCCCCC (stereo not drawn)
Ranking field: PDI; order: falling. Your task in answering is to list the labels in the requested order. Q, T, P, S, R

1. CCCCCCCCCCCOC(=O)CCCCCOC(=O)C(COC(=O)NCCN1CCCCC1)NC(=O)OCCCCCCCCOC(=O)C(CCCCCC)CCCCCCCC (stereo not drawn)
2. CCCCCCCCCCCOC(=O)CCCCCOC(=O)C(COC(=O)NCCN1CCCCCC1)NC(=O)OCCCCCCCCOC(=O)C(CCCCCC)CCCCCCCC (stereo not drawn)
Compare PDI: is it lower for 1 or for 2 ? Indicate which entry you chose by stating its label. 1
(1: 0.03, 2: 0.05)

a. CCCCC/C=C\C/C=C\CCCCCCCCOC(=O)NC(COC(=O)NCCN1CCCCCC1)C(=O)OCCCCCC(=O)OCC(CCCCCCCC)CCCCCCCCCC (stereo not drawn)
b. CCCCC/C=C\C/C=C\CCCCCCCC(=O)N[C@H](COC(=O)NCCN1CCCCCC1)C(=O)OCCCCCC(=O)OC(CCCCCCCC)CCCCCCCC
Could you tell me which of these two has the smaller PDI figure? First: a Second: b Refer to your chosen item by its label in the answer. a
(a: 0.03, b: 0.05)

* * *

# Tested on: hEPO
# Method Summary: In vivo expression by IM: serum hEPO concentration by ELISA
# Run Conditions: IM 0.075 mg/kg, 2 h, male C57BL/6J mice N=3, Formulation 001, RNA 019
Item-by-item account of hEPO conc. (ng/mL) at 2 h
Write it as a number; the unit ng/mL goes unstated.

Which hEPO conc. (ng/mL) at 2 h is listed for CCCCC/C=C\C/C=C\CCCCCCCC(=O)NC(COC(=O)NCCN1CCCCCC1)C(=O)OCCCCCCCC(=O)OC(CCCCCCCC)CCCCCCCC (stereo not shown) ? 1.56

// next record CCCCC/C=C\C/C=C\CCCCCCCC(=O)N[C@@H](COC(=O)NCCN1CCCCC1)C(=O)OCCCCCCCC(=O)OC(CCCCCCCC)CCCCCCCC 1.12

Query CCCCC/C=C\C/C=C\CCCCCCCC(=O)N[C@@H](COC(=O)NCCN1CCCCCC1)C(=O)OCCCCCCCC(=O)OC(CCCCCCCC)CCCCCCCC next 1.02

Try this molecule too: CCCCC/C=C\C/C=C\CCCCCCCC(=O)NC(COC(=O)NCCN1CCCCC1)C(=O)OCCCCCCCC(=O)OC(CCCCCCCC)CCCCCCCC (stereo not shown) 2.47

* * *

// reported Whole body (p/s) per item
# Tested on: C57BL/6J mice
# Method Summary: In vivo expression by ID, whole-body/injection site skin/lymph node luminescence
# Run Conditions: intradermal 0.15 mg/kg, 72 h post injection, female C57BL/6J mice N=3, Formulation 001, RNA 331
# Protocol: 7-8 week old, female C57BL/6J mice (N=3) were injected with 0.15 mg*kg−1 of RNA-LNPs encoding for firefly-luciferase by intradermal injection. At 72-hours post injection, animals were intraperitoneally injected with 15 mg/mi of Luciferin substrate and whole-body/injection site skin/lymph node luminescence were determined by a bioluminescent in vivo imaging system (IVIS).
Express the result in p/s but write the number alone.

Known results for compounds:
Compound: CCCCC/C=C\C/C=C\CCCCCCCC(=O)NC(COC(=O)NCCN1CCCCC1)C(=O)OCCCCCC(=O)OCC(CCCCCCCC)CCCCCCCCCC (stereo not drawn)
Property Name: Whole body (p/s)
Reading Unit: p/s
Reported Measurement: 3.58E+07

Compound: CCCCCCCC/C=C\CCCCCCCC(=O)NC(COC(=O)NCCN1CCCCC1)C(=O)OCCCCCCCCOC(=O)C(CCCCCC)CCCCCCCC (stereo not drawn)
Property Name: Whole body (p/s)
Reading Unit: p/s
Reported Measurement: 8.00E+07

Compound: CCCCC/C=C\C/C=C\CCCCCCCC(=O)NC(COC(=O)NCCN1CCCCCC1)C(=O)OCCCCCC(=O)OCC(CCCCCCCC)CCCCCCCCCC (stereo not drawn)
Property Name: Whole body (p/s)
Reading Unit: p/s
Reported Measurement: 6.76E+07

Given the compound CCCCC/C=C\C/C=C\CCCCCCCC(=O)N[C@H](COC(=O)NCCN1CCCCCC1)C(=O)OCCCCCC(=O)OC(CCCCCCCC)CCCCCCCC , what is its reported Whole body (p/s)? 2.81E+07

Next compound up: CCCCCCCC/C=C\CCCCCCCC(=O)NC(COC(=O)NCCN1CCCCCC1)C(=O)OCCCCCCCCOC(=O)C(CCCCCC)CCCCCCCC (stereo not drawn) 6.46E+07

Same again, this time with CCCCC/C=C\C/C=C\CCCCCCCC(=O)N[C@@H](COC(=O)NCCN1CCCCCC1)C(=O)OCCCCCCCC(=O)OC(CCCCCCCC)CCCCCCCC 1.40E+08

* * *

# Method Summary: LNP size and polydispersity index (PDI) by dynamic light scattering (Zetasizer)
# Assay type: physicochemical
# Run Conditions: Formulation No. 010 (Ionizable lipid:DSPC:cholesterol:DSPE-PEG2000 = 38:30:30:2, N/P 6), RNA No. 331
# Method: The LNP size and polydispersity index (PDI), determined by dynamic light scattering (DLS), and zeta potential were measured by a Zetasizer machine (Malvern). RNA concentration and encapsulation efficacy (EE %) were analyzed by the Quant-IT Ribogreen kit by calculating the percentage encapsulation at 100%—(RNA-LNPs/RNA-LNPs with Triton X-100).
Property Name: Size (nm)

Compound: CCCCC/C=C\C/C=C\CCCCCCCC(=O)NC(COC(=O)NCCN1CCCCCC1)C(=O)OCCCCCCCC(=O)OC(CCCCCCCC)CCCCCCCC (stereo not drawn)
Reading Unit: nm
Reported Measurement: 67.81
--
Compound: CCCCC/C=C\C/C=C\CCCCCCCC(=O)N[C@@H](COC(=O)NCCN1CCCCC1)C(=O)OCCCCCCCC(=O)OC(CCCCCCCC)CCCCCCCC
Reading Unit: nm
Reported Measurement: 62.33
--
Compound: CCCCC/C=C\C/C=C\CCCCCCCC(=O)NC(COC(=O)NCCN1CCCCCC1)C(=O)OCCCCCC(=O)OCC(CCCCCCCC)CCCCCCCCCC (stereo not drawn)
Reading Unit: nm
Reported Measurement: 57.90
--
Compound: CCCCC/C=C\C/C=C\CCCCCCCC(=O)NC(COC(=O)NCCN1CCCCC1)C(=O)OCCCCCC(=O)OCC(CCCCCCCC)CCCCCCCCCC (stereo not drawn)
Reading Unit: nm
Reported Measurement: 56.88
--
Compound: CCCCC/C=C\C/C=C\CCCCCCCC(=O)N[C@@H](COC(=O)NCCN1CCCCCC1)C(=O)OCCCCCCCC(=O)OC(CCCCCCCC)CCCCCCCC
Reading Unit: nm
Reported Measurement: 64.73
--
Compound: CCCCCCCC/C=C\CCCCCCCC(=O)NC(COC(=O)NCCN1CCCCC1)C(=O)OCCCCCCCCOC(=O)C(CCCCCC)CCCCCCCC (stereo not drawn)
Reading Unit: nm
Reported Measurement: 55.29
--
Compound: CCCCC/C=C\C/C=C\CCCCCCCC(=O)NC(COC(=O)NCCN1CCCCC1)C(=O)OCCCCCCCC(=O)OC(CCCCCCCC)CCCCCCCC (stereo not drawn)
Reading Unit: nm
Reported Measurement: 57.35
--
Compound: CCCCCCCC/C=C\CCCCCCCC(=O)NC(COC(=O)NCCN1CCCCCC1)C(=O)OCCCCCCCCOC(=O)C(CCCCCC)CCCCCCCC (stereo not drawn)
Reading Unit: nm
Reported Measurement: 60.60
--
Compound: CCCCC/C=C\C/C=C\CCCCCCCC(=O)N[C@H](COC(=O)NCCN1CCCCCC1)C(=O)OCCCCCC(=O)OC(CCCCCCCC)CCCCCCCC
Reading Unit: nm
Reported Measurement: 59.50
